tested on: CD19+ lymphoma cells in PBMC of a mantle-cell lymphoma patient; assay: TMRE FACS on live CD19+ cells of PBMC from a mantle-cell lymphoma patient; format: cell-based, human; details: CD19 gate, 3 h; BH3 mimetics 1000 nM, FCCP 5 μM
Kindly state MeanFL (mean TMRE fluorescence for the live CD19+ cells) for each of the entries shown.
Numbers only.

Solved cases below.
Compound: N#CC(C#N)=NNc1ccc(OC(F)(F)F)cc1 [FCCP]
Numeric Result: 109

Compound: CN(C)CC[C@H](CSc1ccccc1)Nc1ccc(S(=O)(=O)NC(=O)c2ccc(N3CCN(Cc4ccccc4-c4ccc(Cl)cc4)CC3)cc2)cc1[N+](=O)[O-] [ABT-737]
Numeric Result: 69

Compound: Cc1c(-c2c(-c3ccc(F)o3)sc3ncnc(O[C@H](Cc4ccccc4OCc4ccnn4CC(F)(F)F)C(=O)O)c23)ccc(OCCN2CCN(C)CC2)c1Cl [S63845]
Numeric Result: 396

Compound: Cc1c(-c2ccc(N3CCc4cccc(C(=O)Nc5nc6ccccc6s5)c4C3)nc2C(=O)O)cnn1CC12CC3CC(CC(C3)C1)C2 [A1331852]
Numeric Result: 203

Note: attention shifts to another entry.
Please look up its MeanFL (mean TMRE fluorescence for the live CD19+ cells): CC1(C)CCC(CN2CCN(c3ccc(C(=O)NS(=O)(=O)c4ccc(NCC5CCOCC5)c([N+](=O)[O-])c4)c(Oc4cnc5[nH]ccc5c4)c3)CC2)=C(c2ccc(Cl)cc2)C1 [ABT-199]
65

* * *

test system: CD19+ lymphoma cells in PBMC of a mantle-cell lymphoma patient; test: TMRE FACS on live CD19+ cells of PBMC from a mantle-cell lymphoma patient; type: cell-based, human; details: CD19+ cells, 3 h; BH3 mimetics 1 μM, FCCP 5 μM; in comparison to the negative control
Measure: mean TMRE fluorescence relative to negative control (%)
Answers are plain numbers, in %.

Solved cases below.
Molecule: N#CC(C#N)=NNc1ccc(OC(F)(F)F)cc1 [FCCP]
Numeric Result: 15.6

Molecule: Cc1c(-c2ccc(N3CCc4cccc(C(=O)Nc5nc6ccccc6s5)c4C3)nc2C(=O)O)cnn1CC12CC3CC(CC(C3)C1)C2 [A1331852]
Numeric Result: 29.1

Molecule: CN(C)CC[C@H](CSc1ccccc1)Nc1ccc(S(=O)(=O)NC(=O)c2ccc(N3CCN(Cc4ccccc4-c4ccc(Cl)cc4)CC3)cc2)cc1[N+](=O)[O-] [ABT-737]
Numeric Result: 9.9

Please look up its mean TMRE fluorescence relative to negative control: CC1(C)CCC(CN2CCN(c3ccc(C(=O)NS(=O)(=O)c4ccc(NCC5CCOCC5)c([N+](=O)[O-])c4)c(Oc4cnc5[nH]ccc5c4)c3)CC2)=C(c2ccc(Cl)cc2)C1 [ABT-199]
9.3
